target.or.test.system: benzodiazepine receptor
procedure.summary: benzodiazepine receptor affinity, [^3 H] flunitrazepam radio receptor binding (modified Squires and Braestrup) on rat forebrain membrane preparations
condition.description: 0.6 nM [^3 H] flunitrazepam, read-out: IC50, inhibition of the specific binding of [^3 H] flunitrazepam by 50%
pIC50: −log10 of the molar value.
measurement.type: pIC50

mol.smiles: CCc1ccc2c(c1)c(OC)cc1nc(C(=O)c3ccccn3)cn12
target.or.test.system: benzodiazepine receptor
measurement.type: pIC50
recorded.number: 7.04
--
mol.smiles: CCc1ccc(C(=O)c2cn3c(cc(OC)c4ccccc43)n2)cc1
target.or.test.system: benzodiazepine receptor
measurement.type: pIC50
recorded.number: 7.17
--
mol.smiles: COc1cc2nc(C(=O)c3ccccc3)cn2c2c(Cl)cccc12
target.or.test.system: benzodiazepine receptor
measurement.type: pIC50
recorded.number: 6.88
